Consider the following molecules; for each one, report its pIC50.
- Test system: NCI-H209;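 further: growth inhibition of human NCI-H209 cells, measured by a cell viability assay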
- Measurement Protocol: cells
- Type: functional, cell-based
- Test Context: Homo sapiens
- Description: SANGER: Inhibition of human NCI-H209 cell growth in a cell viability assay.
pIC50: −log10 of the molar value.

Molecule: O=C(/C=C/c1ccccc1)NC(NC(=S)Nc1cccc2cccnc12)C(Cl)(Cl)Cl (configuration not stated) [SALUBRINAL]
pIC50: < 4.80

Lab note: each molecule below needs its pIC50 filled in.
1. CCC1=C[C@@H]2CN(C1)Cc1c([nH]c3ccccc13)[C@@](C(=O)OC)(c1cc3c(cc1OC)N(C)[C@H]1[C@@](O)(C(=O)OC)[C@H](OC(C)=O)[C@]4(CC)C=CCN5CC[C@]31[C@@H]54)C2 [VINORELBINE]
2. COc1ccc(-c2ccc3c(N4CCOC[C@@H]4C)nc(N4CCOC[C@@H]4C)nc3n2)cc1CO [AZD-8055]
3. CN1CCN(CCOc2cc(OC3CCOCC3)c3c(Nc4c(Cl)ccc5c4OCO5)ncnc3c2)CC1 [SARACATINIB]
4. O=C1N=C(NCc2cccs2)S/C1=C\c1ccc2ncccc2c1
5. C[C@]1(O)C[C@@H](c2nc(-c3ccc4ccc(-c5ccccc5)nc4c3)c3c(N)nccn32)C1 [LINSITINIB]
6. C=CCNC1=C2C[C@@H](C)C[C@H](OC)[C@H](O)[C@@H](C)/C=C(\C)[C@H](OC(N)=O)[C@@H](OC)/C=C\C=C(/C)C(=O)NC(=CC1=O)C2=O [TANESPIMYCIN]

7.29
7.26
< 5.70
< 5.30
< 5.59
< 6.00
